Provenance of the data: ChEMBL document CHEMBL1127248

A collection of molecules and their measured IC50
- Test system: KB
- experiment summary: Cytotoxicity in KB VP-16 R cancer cell line
- Assay type: functional, cell-based
- measurement context: Homo sapiens
Numeric answer only, unit µg/mL assumed.

Qu. Fill blank: measured IC50 of the molecule CC[C@@]1(O)C(=O)OCc2c1cc1n(c2=O)Cc2c-1nc1ccccc1c2/C=N/NC(=O)C1CCCN1.Cl (stereo partly drawn) is ____.
Ans. 0.6

Qu. Note, next up: CC[C@@]1(O)C(=O)OCc2c1cc1n(c2=O)Cc2c-1nc1ccccc1c2/C=N/NC(=O)C(N)CO.Cl (stereo partly drawn)
Ans. 5

Qu. What do you have for CC[C@@]1(O)C(=O)OCc2c1cc1n(c2=O)Cc2c-1nc1ccccc1c2/C=N/NC(=O)C(C)N.Cl (stereo partly drawn) ?
Ans. 5

Qu. Same question, `CC[C@@]1(O)C(=O)OCc2c1cc1n(c2=O)Cc2c-1nc1ccccc1c2/C=N/NC(=O)CN.Cl` this time
Ans. 3

Qu. And then CC[C@@]1(O)C(=O)OCc2c1cc1n(c2=O)Cc2c-1nc1ccccc1c2/C=N/NC(=O)C(N)Cc1ccc(O)cc1.Cl (stereo partly drawn) , what is it?
Ans. 5

Qu. Can you handle CC[C@@]1(O)C(=O)OCc2c1cc1n(c2=O)Cc2c-1nc1ccccc1c2/C=N/NC(=O)C(N)CC(C)C.Cl (stereo partly drawn) next?
Ans. 1

Continuing:
Qu. Any idea what its IC50 is? The molecule is CC[C@@]1(O)C(=O)OCc2c1cc1n(c2=O)Cc2c-1nc1ccccc1c2/C=N/NC(=O)C(N)CCSC.Cl (stereo partly drawn)
Ans. 0.5

Qu. Another molecule: `CC[C@@]1(O)C(=O)OCc2c1cc1n(c2=O)Cc2cc3ccccc3nc2-1`
Ans. 0.04
